Molecular target: TTR (Homo sapiens)
Experiment: FITC-T4 TTR competitive binding assay
Conditions: read-out: IC50
Reported values of pIC50 for individual entries
Schema: pIC50 number; meaning minus log10 of the concentration expressed in molar units.

The cases that follow already have their pIC50 on record.
Prompt line: Reported pIC50, molecule `O=C(O)C(F)(F)C(F)(F)C(F)(F)C(F)(F)C(F)(F)C(F)(F)C(F)(F)F` : ____
Response line: 5.96

Prompt line: Reported pIC50, molecule `CCCCCCCCCc1ccc(O)cc1` : ____
Response line: 4.80

Prompt line: Reported pIC50, molecule `Clc1ccc(-c2cc(Cl)c(Cl)cc2Cl)cc1Cl` : ____
Response line: 6.25

Continuing:
Prompt line: Reported pIC50, molecule `Clc1cc(Cl)c(-c2cc(Cl)c(Cl)cc2Cl)cc1Cl` : ____
Response line: 6.74

Prompt line: Reported pIC50, molecule `O=S(=O)(O)C(F)(F)C(F)(F)C(F)(F)C(F)(F)C(F)(F)C(F)(F)F` : ____
Response line: 6.34
